Consider the following compounds and their measured MIC readings.
# System: Klebsiella pneumonia KAE
# Assay type: cell-based
# CONDITION CONTEXT: agar dilution

# COMPOUND, MIC
data = [
    ("CN[C@H](CC(C)C)C(=O)N[C@H]1C(=O)N[C@@H](CC(N)=O)C(=O)N[C@H]2C(=O)N[C@H]3C(=O)N[C@H](C(=O)N[C@H](C(=O)O)c4cc(O)cc(O)c4-c4cc3ccc4O)[C@H](O)c3ccc(c(Cl)c3)Oc3cc2cc(c3O[C@@H]2O[C@H](CO)[C@@H](O)[C@H](O)[C@H]2O)Oc2ccc(cc2Cl)[C@H]1O [Compound 13, Desvancosamine-Vancomycin]", "> 128 µg/mL"),
    ("CC(C)C[C@@H](N)C(=O)N[C@H]1C(=O)N[C@@H](CC(N)=O)C(=O)N[C@H]2C(=O)N[C@H]3C(=O)N[C@H](C(=O)N[C@H](C(=O)O)c4cc(O)cc(O)c4-c4cc3ccc4O)[C@H](O)c3ccc(c(Cl)c3)Oc3cc2cc(c3O)Oc2ccc(cc2Cl)[C@H]1O [Compound 9, Agluco-A51568A]", "> 128 µg/mL"),
    ("CC(C)C[C@H](C(=O)N[C@H]1C(=O)N[C@@H](CC(N)=O)C(=O)N[C@H]2C(=O)N[C@H]3C(=O)N[C@H](C(=O)N[C@H](C(=O)[O-])c4cc(O)cc(O)c4-c4cc3ccc4O)[C@H](O)c3ccc(c(Cl)c3)Oc3cc2cc(c3O[C@@H]2O[C@H](CO)[C@@H](O)[C@H](O)[C@H]2O)Oc2ccc(cc2Cl)[C@H]1O)[N+](C)(C)C [Compound 5, M43C]", "> 64 µg/mL"),
]

---

Consider the following molecules and their measured MIC readings.
# Test system: Staphylococcus aureus V41
# CONDITION CONTEXT: agar dilution

# MOLECULE, MIC [µg/mL]
rows = [
    ("CN[C@H](CC(C)C)C(=O)N[C@H]1C(=O)N[C@@H](CC(N)=O)C(=O)N[C@H]2C(=O)N[C@H]3C(=O)N[C@H](C(=O)N[C@H](C(=O)O)c4cc(O)cc(O)c4-c4cc3ccc4O)[C@H](O)c3ccc(c(Cl)c3)Oc3cc2cc(c3O)Oc2ccc(cc2Cl)[C@H]1O [Compound 10, aglucovancomycin]", 1),
    ("CC(C)C[C@H](C(=O)N[C@H]1C(=O)N[C@@H](CC(N)=O)C(=O)N[C@H]2C(=O)N[C@H]3C(=O)N[C@H](C(=O)N[C@H](C(=O)[O-])c4cc(O)cc(O)c4-c4cc3ccc4O)[C@H](O)c3ccc(c(Cl)c3)Oc3cc2cc(c3O[C@@H]2O[C@H](CO)[C@@H](O)[C@H](O)[C@H]2O)Oc2ccc(cc2Cl)[C@H]1O)[N+](C)(C)C [Compound 5, M43C]", 2),
    ("CC(C)C[C@@H](N)C(=O)N[C@H]1C(=O)N[C@@H](CC(N)=O)C(=O)N[C@H]2C(=O)N[C@H]3C(=O)N[C@H](C(=O)N[C@H](C(=O)O)c4cc(O)cc(O)c4-c4cc3ccc4O)[C@H](O)c3ccc(c(Cl)c3)Oc3cc2cc(c3O)Oc2ccc(cc2Cl)[C@H]1O [Compound 9, Agluco-A51568A]", 0.5),
]

---

# Tested on: Klebsiella pneumonia KAE
# Type: cell-based
# CONDITION CONTEXT: agar dilution

# COMPOUND, MIC
measured = [
    ("CC(C)C[C@@H](N)C(=O)N[C@H]1C(=O)N[C@@H](CC(N)=O)C(=O)N[C@H]2C(=O)N[C@H]3C(=O)N[C@H](C(=O)N[C@H](C(=O)O)c4cc(O)cc(O)c4-c4cc3ccc4O)[C@H](O)c3ccc(c(Cl)c3)Oc3cc2cc(c3O[C@@H]2O[C@H](CO)[C@@H](O)[C@H](O)[C@H]2O)Oc2ccc(cc2Cl)[C@H]1O [Compound 12, Desvancosamine-A51568A]", "> 128 µg/mL"),
    ("CN[C@H](CC(C)C)C(=O)N[C@H]1C(=O)N[C@@H](CC(N)=O)C(=O)N[C@H]2C(=O)N[C@H]3C(=O)N[C@H](C(=O)N[C@H](C(=O)O)c4cc(O)cc(O)c4-c4cc3ccc4O)[C@H](O)c3ccc(c(Cl)c3)Oc3cc2cc(c3O)Oc2ccc(cc2Cl)[C@H]1O [Compound 10, aglucovancomycin]", "> 128 µg/mL"),
    ("CC(C)C[C@H](C(=O)N[C@H]1C(=O)N[C@@H](CC(N)=O)C(=O)N[C@H]2C(=O)N[C@H]3C(=O)N[C@H](C(=O)N[C@H](C(=O)[O-])c4cc(O)cc(O)c4-c4cc3ccc4O)[C@H](O)c3ccc(c(Cl)c3)Oc3cc2cc(c3O)Oc2ccc(cc2Cl)[C@H]1O)[N+](C)(C)C [Compound 11, Agluco-M43A]", "> 128 µg/mL"),
]

The values you see were collected from patent US4552701A.
